# Tested on: Human papillomavirus type 1a E7 protein (residues 1-88)
# assayOverview: HPV1a E7 small-molecule binders, primary screen, biochemical, small-molecule microarray, residues 1-88, 635 nm (AID 1129)
# assaySetup: small-molecule microarray binding, fluorescence 635 nm; higher = more signal
Given measured composite z-score, output Condition met if it is greater than or equal to 0.9 and Condition not met if not.

Worked cases, answers included:
>>> labelclass("COCCCNC(=O)[C@]1(CCS(=O)(=O)c2ccccc2)N=C(c2ccc(OCCCO)cc2)O[C@@H]1c1ccccc1")
"Condition met"
>>> labelclass("COc1ccc(C#Cc2ccc3c(c2)[C@]2(C(=O)N3)[C@H](C(N)=O)[C@H]3C(=O)O[C@H](c4ccccc4)[C@H](c4ccccc4)N3[C@@H]2c2ccc(O)cc2)cc1")
"Condition met"
>>> labelclass("CCCCCCC#C[Si](O[C@H](c1ccccc1)c1cn(Cc2cccc(Cl)c2)nn1)(C(C)C)C(C)C")
"Condition not met"
>>> labelclass("COC(=O)c1ccc(OC)c(/C=C\\CC(CCc2ccccc2)OC(C)=O)c1 (configuration not stated)")
"Condition not met"
>>> labelclass("C[N+](C)(C)CCCCNC(=O)[C@H]1C[C@H]2C(=O)NCC(=O)N2[C@H]1c1ccc(O)cc1")
"Condition not met"

Entry O=C1OCC=C[C@H]2OC34C=CCN(CCN5CCOCC5)C(=O)[C@H]3N(CCCCCO)C(=O)[C@@H]4[C@@H]12 (some centres not stated) : is its composite z-score no less than 0.9? Condition not met
